# RUN DESCRIPTION: method code SF, from DOI: 10.1016/j.ejps.2012.10.019, PMID: 23131797
# CONDITION SUMMARY: pH 5.0
READOUT KIND: logD

Consider the compound shown here: Cc1cccc(C(=O)Nc2ccc(NC(=O)c3ccccc3)c(C)c2)c1 What is its recorded logD?
4.14

Consider the compound shown here: COC(=O)c1ccc(C)c(NC(=O)Cc2coc3cc4c(cc23)CCC4)c1 What is its recorded logD?
4.78

Consider the compound shown here: Cn1ncc(Br)c1C(=O)N1CCCCCC1 What is its recorded logD?
2.63

Consider the compound shown here: CCOC(=O)c1ccc(NCc2c(C)[nH]c(C(=O)OCC)c2C)cc1 What is its recorded logD?
5.09

Consider the compound shown here: O=C(OCC(=O)N1CCC(Cc2ccccc2)CC1)C1CCCCC1 What is its recorded logD?
4.98

Consider the compound shown here: CCOc1ccc(-n2c(SCC(=O)NC3CC3)nc3sc4c(c3c2=O)CCC4)cc1 What is its recorded logD?
4.64

Next, consider the following compound.
Consider the compound shown here: c1ccc(-n2nnnc2OCCOc2nnnn2-c2ccccc2)cc1 What is its recorded logD?
3.72
